Below, each entry is listed with its recorded glycan array binding signal (z-score).
- target.or.test.system: Gal(b1-2)Gal
- run.description: glycan array binding signal (z-score within array); higher = stronger binding
- condition: glycan notation: IUPAC condensed, linker removed
This excerpt belongs to a sample that is enriched for the strongest signals.

- binder: "RbmA (Vibrio cholerae), A0A2H4NFB8 (protein) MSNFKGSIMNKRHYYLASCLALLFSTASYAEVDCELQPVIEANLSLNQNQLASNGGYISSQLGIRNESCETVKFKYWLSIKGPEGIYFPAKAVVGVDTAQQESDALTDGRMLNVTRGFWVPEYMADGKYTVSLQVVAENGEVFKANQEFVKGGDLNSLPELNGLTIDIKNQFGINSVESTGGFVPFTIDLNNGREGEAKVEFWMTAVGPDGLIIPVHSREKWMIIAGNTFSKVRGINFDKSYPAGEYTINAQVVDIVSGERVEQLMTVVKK"
  glycan array binding signal (z-score): -0.082
- binder: "Epa19 (Candida glabrata) (protein) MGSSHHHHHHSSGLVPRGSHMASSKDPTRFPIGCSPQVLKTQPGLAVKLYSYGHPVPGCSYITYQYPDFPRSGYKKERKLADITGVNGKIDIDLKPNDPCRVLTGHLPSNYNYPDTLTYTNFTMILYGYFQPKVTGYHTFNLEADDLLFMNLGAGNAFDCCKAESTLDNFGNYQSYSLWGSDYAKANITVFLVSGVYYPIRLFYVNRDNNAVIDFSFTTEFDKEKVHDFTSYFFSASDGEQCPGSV"
  glycan array binding signal (z-score): -0.099
- binder: "FaeGac (Escherichia coli) (protein) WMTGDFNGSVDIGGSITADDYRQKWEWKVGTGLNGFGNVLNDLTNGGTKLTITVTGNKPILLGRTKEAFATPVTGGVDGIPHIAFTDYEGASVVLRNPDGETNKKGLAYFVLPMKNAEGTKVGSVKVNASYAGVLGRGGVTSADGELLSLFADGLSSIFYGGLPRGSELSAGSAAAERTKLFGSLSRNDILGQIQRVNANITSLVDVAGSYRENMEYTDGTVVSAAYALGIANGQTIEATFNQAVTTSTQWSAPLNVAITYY"
  glycan array binding signal (z-score): 0.274
